Every entry's value here was drawn from patent US9884806B2.

test-system: first bromodomain (BrD1) of human BRD4 (Homo sapiens)
Construct: the first bromodomain (BrD1) of human BRD4; poly-His (cleaved yes)
protocol-text: Fluorescence anisotropy binding assay (competition with FITC-labeled MS417 probe)
run-conditions: FITC-MS417 probe 80 nM, PBS pH 7.4, 1 hour, 25° C., read-out: BRD4_1 IC50
pIC50: −log10 of the molar value.
endpoint-name: pIC50

Please review the following examples before continuing.
{"columns": ["molecule", "data-value"],
 "data": [
  ["COC(=O)c1ccccc1NC1=C(C)C(=O)CC1 [Example 01-19]", "< 5.00"],
  ["COc1cc(NC2=C(C)C(=O)CC2)ccc1C(=O)Nc1cccc(C)c1 [Example 04-73]", "5.00 to 6.00"],
  ["CC1=C(Nc2cc(C(=O)Nc3ccccc3C)ccc2Cl)CCC1=O [Example 04-89]", "> 6.00"],
  ["CC1=C(Nc2ccc3nccnc3c2)CCCC1=O [Example 01-60]", "5.00 to 6.00"]
]}

// switching to the query molecule
Prompt: Could you tell me which pIC50 is on file for CC1=C(Nc2cccc(C(=O)O)c2Cl)CCC1=O [Example 01-44] ?
Response: 5.00 to 6.00

---

Tested on: mRNA transcript levels of cytokines IL-6, IL-1β and TNFα in RAW264.7 cells
protocol-text: LPS-induced transcriptional activation of cytokines in murine macrophage cells (quantitative PCR)
Assay type: cell-based
run-conditions: Mus musculus; RAW264.7 cells, LPS, quantitative PCR of mRNA transcript levels; read-out: IC50 in inhibition of transcriptional activation of the cytokines IL-6, IL-1β and TNFα
endpoint-name: IC50

Please review the following examples before continuing.
{"columns": ["compound-smiles", "endpoint-name", "data-value"],
 "data": [
  ["CC1=C(Nc2ccc(C(=O)Nc3ccccc3C)cc2Cl)CCCC1=O", "IC50", "0.1 to 5 µM"],
  ["CC1=C(Nc2cccc(-c3cn(Cc4ccccc4)nn3)c2)CCC1=O", "IC50", "0.1 to 5 µM"],
  ["CC1=C(Nc2cc(C(=O)Nc3ccccc3C)ccc2Cl)CCCC1=O", "IC50", "0.1 to 5 µM"],
  ["COc1ccc(NC(=O)c2ccc(NC3=C(C)C(=O)CC3)c(Cl)c2)cc1", "IC50", "0.1 to 5 µM"],
  ["COc1ccccc1NC(=O)c1ccc(NC2=C(C)C(=O)CC2)c(Cl)c1", "IC50", "0.1 to 5 µM"]
]}

// switching to the query compound
Prompt: What value of IC50 on mRNA transcript levels of cytokines IL-6, IL-1β and TNFα in RAW264.7 cells does CC1=C(Nc2cc(C(=O)O)ccc2Cl)CCCC1=O have?
Response: 0.1 to 5 µM

---

test-system: BRD4_2 (Homo sapiens, UniProt O60885)
Construct: contains two tandem bromodomains (BrD1 and BrD2)
protocol-text: Fluorescence anisotropy binding assay (competition with FITC-labeled MS417 probe), BRD4_2
run-conditions: FITC-MS417 probe 80 nM, PBS pH 7.4, 1 hour, 25° C.
Reported IC50 values follow for various compounds

{"columns": ["compound", "endpoint-name", "data-value"],
 "data": [
  ["CC1=C(N[C@H]2CC[C@H](C(=O)Nc3ccc(C)cc3)CC2)CCC1=O [Example 04-32]", "IC50", "> 10 µM"],
  ["CC1=C(Nc2ccc(C(=O)O)cc2Cl)CCC1=O [Examples 02-2]", "IC50", "1 to 10 µM"],
  ["CC1=C(Nc2ccncc2)CCC1=O [Example 01-30]", "IC50", "1 to 10 µM"],
  ["CC1=C(Nc2cc(C(=O)O)c3ccccc3c2)CCCC1=O [Example 01-52]", "IC50", "1 to 10 µM"],
  ["CC1=C(Nc2cc(NCc3ccccc3F)ccc2Cl)CCCC1=O [Example 05-74]", "IC50", "< 1 µM"]
]}

Prompt: What value of IC50 on BRD4_2 (Homo sapiens, UniProt O60885) does CC1=C(Nc2cccc(NS(=O)(=O)c3ccccc3C)c2Cl)CCCC1=O [Example 05-70] have?
Response: > 10 µM

Prompt: Now try COc1ccccc1NC(=O)c1ccc(NC2=C(C)C(=O)CC2)cc1Cl [Example 04-46] .
Response: > 10 µM

Prompt: Now try CC1=C(Nc2ccc(C(=O)Nc3cccc(C)c3)cc2C)CCC1=O [Example 04-85] .
Response: 1 to 10 µM

Prompt: Now try CC1=C(Nc2ccc(NS(=O)(=O)C3CCCCC3)cc2Cl)CCCC1=O [Example 05-69] .
Response: 1 to 10 µM

Prompt: Now try N#CC1=C(Nc2cc(C(=O)O)ccc2Cl)CCCC1=O [Example 05-33] .
Response: > 10 µM

Prompt: Now try CC1=C(Nc2ccc(C(=O)Nc3ccccc3)c(Cl)c2)CCC1=O [Example 04-45] .
Response: > 10 µM

Prompt: Now try CC1=C(Nc2cccc(NS(=O)(=O)C3CCCCC3)c2Cl)CCCC1=O [Example 05-71] .
Response: 1 to 10 µM

Prompt: Now try CC1=C(Nc2nccnc2Cl)CCCC1=O [Example 01-50] .
Response: > 10 µM

---

test-system: first bromodomain (BrD1) of human BRD4 (Homo sapiens, UniProt O60885)
Construct: the first bromodomain (BrD1) of human BRD4; poly-His (cleaved yes); made in house
protocol-text: Fluorescence anisotropy binding assay (competition with FITC-labeled MS417 probe)
run-conditions: FITC-MS417 probe 80 nM, PBS pH 7.4, 1 hour, 25° C., read-out: BRD4_1 IC50
pIC50: −log10 of the molar value.
endpoint-name: pIC50

{"columns": ["molecule", "pIC50"],
 "data": [
  ["CC1=C(Nc2cccc(NC(=O)c3ccccc3C)c2Cl)CCCC1=O [Example 05-50]", "5.00 to 6.00"]
]}

Prompt: Could you tell me which pIC50 is on file for CC(=O)c1ccc(NC2=C(C)C(=O)CC2)cc1 [Example 01-9] ?
Response: 5.00 to 6.00

Prompt: Now try CC1=C(Nc2ccc(S(=O)(=O)Nc3ccccn3)cc2)CCC1=O [Example 01-31] .
Response: 5.00 to 6.00

Prompt: Now try COc1cc(NC2=C(C)C(=O)CC2)ccc1C(=O)Nc1ccccc1C [Example 04-72] .
Response: > 6.00

Prompt: Now try CC1=C(Nc2cc(NS(=O)(=O)C3CCCCC3)ccc2Cl)CCC1=O [Example 05-55] .
Response: > 6.00

Prompt: Now try CC1=C(Nc2cccc(-c3cn(Cc4ccccc4)nn3)c2)CCC1=O [Example 06-04] .
Response: > 6.00

Prompt: Now try CC1=C(Nc2ccc(C(=O)O)cc2F)CCC1=O [Examples 02-6] .
Response: 5.00 to 6.00

Prompt: Now try CC1=C(Nc2ccc(C(=O)Nc3ccccc3)cc2Cl)CCC1=O [Example 04-16] .
Response: 5.00 to 6.00

Prompt: Now try CC1=C(Nc2cc(NS(=O)(=O)N3CCOCC3)ccc2Cl)CCC1=O [Example 05-62] .
Response: > 6.00

---

test-system: first bromodomain (BrD1) of human BRD4 (Homo sapiens)
Construct: the first bromodomain (BrD1) of human BRD4; poly-His (cleaved yes)
protocol-text: Fluorescence anisotropy binding assay (competition with FITC-labeled MS417 probe)
run-conditions: FITC-MS417 probe 80 nM, PBS pH 7.4, 1 hour, 25° C., read-out: BRD4_1 IC50
endpoint-name: IC50

{"columns": ["compound-smiles", "IC50"],
 "data": [
  ["COc1ccc(NC(=O)c2ccc(Cl)c(NC3=C(C#N)C(=O)CCC3)c2)cc1", "> 10 µM"],
  ["COC(=O)c1cc(Cl)ccc1NC1=C(C)C(=O)CC1", "> 10 µM"],
  ["COC(=O)c1ccc(NC2=C(C)C(=O)CC2)c(F)c1", "1 to 10 µM"],
  ["Cc1ccccc1NC(=O)c1ccc(Cl)c(NC2=C(C#N)C(=O)CCC2)c1", "> 10 µM"]
]}

// switching to the query compound
Prompt: What value of IC50 on first bromodomain (BrD1) of human BRD4 (Homo sapiens) does CC1=C(Nc2ccc(NS(=O)(=O)c3ccccc3C)cc2Cl)CCCC1=O have?
Response: < 1 µM

---

Reported melting point values follow for various compounds

Please review the following examples before continuing.
{"columns": ["compound-smiles", "endpoint-name", "data-value"],
 "data": [
  ["CC1=C(Nc2cc(NC(=O)c3cccc4ccccc34)ccc2Cl)CCCC1=O", "melting point", "245 to 247 °C"],
  ["CC(=O)c1ccc(NC2=C(C)C(=O)CC2)cc1", "melting point", "270 to 273 °C"],
  ["CC1=C(Nc2cc(NS(=O)(=O)c3ccccc3C)ccc2Cl)CCCC1=O", "melting point", "246 to 248 °C"],
  ["COc1cc(NC2=C(C)C(=O)CC2)ccc1C(=O)O", "melting point", "240 to 243 °C"],
  ["CC1=C(Nc2nccnc2Cl)CCCC1=O", "melting point", "116 to 118 °C"]
]}

Prompt: Could you tell me which melting point is on file for CC1=C(Nc2cccc(NCc3ccccc3C)c2Cl)CCCC1=O ?
Response: 132 to 135 °C

Prompt: Now try CC1=C(Nc2cccc3ccccc23)CCC1=O .
Response: 166 to 168 °C

Prompt: Now try CC1=C(Nc2cc(NS(=O)(=O)N3CCCCC3)ccc2Cl)CCC1=O .
Response: 78 to 80 °C

Prompt: Now try CC1=C(Nc2ccc(C(=O)O)cc2C)CCC1=O .
Response: 233 to 236 °C
